Values from PubChem BioAssay (EPA / NIEHS)

- Read-out: Plasminogen activator inhibitor-1 (PAI1), SERPINE1 (gene 5054)
- Experiment Summary: BSK_BE3C_PAI1: BioMAP Diversity Plus: BE3C Assay for Plasminogen activator inhibitor-1 (PAI1) Biomarker Activity (AID 2283037)
- Test Parameters: primary human bronchial epithelial cells; actives raise or lower the signal
Activity calls are given as the source filed them. The calls were made as follows: active = hit-call score of the fitted dose curve at least 0.9, where 1 is the maximum; inactive = score below 0.9.
The reply should be one of these categories: active, inactive

Dear colleague, could you share the recorded outcome for `O=C(O)CCC(F)(F)C(F)(F)C(F)(F)F` when you have a moment?
inactive

Next: `O=C(O)C(F)(F)C(F)(F)C(F)(F)OC(F)(C(F)(F)F)C(F)(F)F`
inactive

Entry `O=C(c1ccccc1)c1ccc(O)cc1O` please
inactive

Entry `Cc1cc(O)c(C(C)(C)C)cc1C(C)(C)C` please
active

Further cases:
Per the assay record, what outcome was assigned to OCC(O)CC(F)(F)C(F)(F)C(F)(F)C(F)(F)F (stereo not given) ?
inactive

---

- System: Sodium/Iodide Symporter (NIS), SLC5A5 (gene 6528)
- Experiment Summary: CPHEA_Stoker_NIS_Inhibition_RAIU: CPHEA's Radioactive Iodide Uptake (RAIU) Assay for Sodium/Iodide Symporter (NIS) Inhibition, Stoker and Laws Labs (AID 2283841)
Inconclusive results are not listed. Activity calls are given as the source filed them. How the source made its calls: active means hit-call score of the fitted dose curve at least 0.9, where 1 is the maximum; inconclusive means response in the unintended direction; inactive means score below 0.9.
Hello, when you answer, please use one of the following outcomes: true = active, false = inactive

Reference set (3 entries):
// param item: `CCN=c1cc2oc3cc(NCC)c(C)cc3c(-c3ccccc3C(=O)OCC)c-2cc1C` ; yields the recorded call
true

Entry `OCCCCC(F)(F)C(F)(F)C(F)(F)C(F)(F)F` please
false

Queued: `O=C(F)C1(F)C(F)(F)C(F)(F)C(F)(F)C(F)(F)C1(F)F`
false

Now consider the entry below.
Check the results log: what was the call for `CCN(CCO)S(=O)(=O)C(F)(F)C(F)(F)C(F)(F)C(F)(F)C(F)(F)C(F)(F)C(F)(F)C(F)(F)F` ?
false

---

- Measurement Target: Nuclear receptor subfamily 1 group I member 2 (Homo sapiens) (UniProt O75469)
- Sequence (O75469 whole entry, looked up): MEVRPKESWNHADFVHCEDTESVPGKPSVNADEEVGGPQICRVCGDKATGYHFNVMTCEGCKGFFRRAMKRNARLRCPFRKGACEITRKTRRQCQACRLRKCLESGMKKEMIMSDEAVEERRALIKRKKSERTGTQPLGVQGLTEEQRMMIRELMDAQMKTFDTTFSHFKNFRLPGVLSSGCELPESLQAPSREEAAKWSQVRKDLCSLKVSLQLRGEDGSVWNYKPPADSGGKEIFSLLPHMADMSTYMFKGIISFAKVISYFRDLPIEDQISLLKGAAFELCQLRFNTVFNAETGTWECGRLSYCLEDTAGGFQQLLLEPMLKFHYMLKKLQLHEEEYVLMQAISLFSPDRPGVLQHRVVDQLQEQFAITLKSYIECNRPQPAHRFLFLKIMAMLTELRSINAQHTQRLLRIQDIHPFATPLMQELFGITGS
- Experiment Summary: ATG_PXR_TRANS: Attagene TRANS-FACTORIAL HepG2 Assay for human Pregnane X Receptor (PXR) (AID 2283008)
Inconclusive results are not listed. Activity calls are given as the source filed them. The calls were made as follows: active = hit-call score of the fitted dose curve at least 0.9, where 1 is the maximum; inconclusive = response in the unintended direction; inactive = score below 0.9.
Quantity Measured: AC50

Here is how some compounds turned out for AC50.
Returns the measured AC50 for the input compound. Input: `Cc1cc(O)c(C(C)(C)C)cc1C(C)(C)C`
3.47 µM (active)

Lookup `OCCCCl`
inactive

Record: `CC(C)OC=O`
inactive

// next record `N#Cc1ccccc1O`
inactive

Also check `OCC(F)(F)C(F)(F)C(F)(F)C(F)(F)C(F)(F)C(F)(F)CO`
inactive

---
For `O=C1c2ccccc2C(=O)c2c(Cl)cccc21` , what is its reported AC50?
2.73 µM (active)

For `Cc1cc(C)c(O)c(C(C)(C)C)c1` then?
16.2 µM (active)

Same for `CCN(CC)c1ccc(N=Nc2ccccc2)cc1`
4.22 µM (active)

Subsequent entry: `CC(C)Nc1ccc(NC(C)C)c2c1C(=O)c1ccccc1C2=O`
0.16 µM (active)

Another compound to check: `CCOCN(C(=O)CS(=O)(=O)O)c1c(C)cccc1CC`
inactive

Next: `CC(C)(C)c1cc(Cc2cc(C(C)(C)C)c(O)c(C(C)(C)C)c2)cc(C(C)(C)C)c1O`
0.631 µM (active)

Queued: `F[Si-2](F)(F)(F)(F)F`
inactive

---

- Experiment Summary: ATG_ISRE_CIS: Attagene CIS-FACTORIAL HepG2 Assay for human Interferon Regulatory Factor 1 (IRF1) binding to an Interferon-Stimulated Response Element (ISRE) (AID 2282948)
- Test Parameters: HepG2 ISRE cis-reporter (Attagene), mRNA transcription readout; actives raise or lower the signal
Calls of active or inactive are those of the source. The calls were made as follows: active = hit-call score of the fitted dose curve at least 0.9, where 1 is the maximum; inactive = score below 0.9.
Answer with one of the outcomes Y for active, N for inactive

What did the test return for `Cc1ccc(O)cn1` ?
N

Moving on to another molecule below.
Hey, what did the test say about `CC(C)OC(=O)COc1ccc(Cl)cc1Cl` ?
N

---

- Measurement Target: Retinoic acid receptor alpha (Homo sapiens)
- Experiment Summary: ATG_RARa_TRANS: Attagene TRANS-FACTORIAL HepG2 Assay for human Retinoic Acid Receptor alpha (RARa) (AID 2283005)
Results filed as inconclusive are left out. Calls of active or inactive are those of the source. How the source made its calls: active means hit-call score of the fitted dose curve at least 0.9, where 1 is the maximum; inconclusive means response in the unintended direction; inactive means score below 0.9.
Pick one: active, inactive

For `NC(=O)C(F)(F)C(F)(F)C(F)(F)C(F)(F)C(F)(F)C(F)(F)C(F)(F)F` , what call appears in the results of this test?
inactive

---

- Experiment Summary: ATG_EGR_CIS: Attagene CIS-FACTORIAL HepG2 Assay for human Early Growth Response 1 (EGR1) (AID 2282938)
- Test Parameters: HepG2 Attagene CIS-FACTORIAL EGR reporter mRNA; actives raise or lower the signal
Activity calls are given as the source filed them. The calls were made as follows: active = hit-call score of the fitted dose curve at least 0.9, where 1 is the maximum; inactive = score below 0.9.
Return exactly one item of label 1 for active, label 0 for inactive

Recorded results for 2 compounds are shown here.
Name the outcome recorded for `O=c1cccc[nH]1` in the assay.
label 0

Would you mind doing `CCOC(OCC)OCC` as well?
label 0

Further cases:
Returns: the outcome recorded for `O=S(=O)(O)CCC(F)(F)C(F)(F)C(F)(F)C(F)(F)F` in this assay.
label 0

Do the same for `Oc1ccc(C2(c3ccc(O)c(C4CCCCC4)c3)CCCCC2)cc1C1CCCCC1` please
label 1

Now consider `CCCCCCCCCCCC(=O)Cl` .
label 0

Do the same for CCc1cccc(C)c1N(C(=O)C(=O)O)C(C)COC (stereo not drawn) please
label 0

And what about the compound `CCN(CC)c1ccc(C=O)cc1` ?
label 0

Cool, now `OCC(F)(F)C(F)(F)C(F)(F)C(F)(F)C(F)(F)C(F)(F)CO`
label 0

And what about the compound CCOC(=O)C1CC(=O)C(=C(O)C2CC2)C(=O)C1 (stereo not drawn) ?
label 0

Also OCCC(O)CO (stereo not drawn) , if possible.
label 0

Same thing, different compound: `O=C(Cl)C(F)(F)C(F)(F)C(F)(F)C(F)(F)C(F)(F)C(F)(F)F`
label 0

# repeat for `C=C(C)CCCC`
label 0

Also `O=C1c2c(O)ccc(Nc3ccc(CCO)cc3)c2C(=O)c2c([N+](=O)[O-])ccc(O)c21` , if possible.
label 0

---

- Measurement Target: Estrogen receptor (Homo sapiens)
- Experiment Summary: OT_ERa_GFPERaERE_0480: Odyssey Thera (OT) 8-hour HeLa Transcription Induction Assay for Estrogen Receptor (AID 2283381)
Calls of active or inactive are those of the source. Rule for the calls: active = hit-call score of the fitted dose curve at least 0.9, where 1 is the maximum; inactive = score below 0.9.
Pick one and only one: 1 for active, 0 for inactive

Look over these answered cases.
Look up the recorded call for CCCCC(CC)COC(=O)c1ccc(N(C)C)cc1 (stereo not drawn) in this test.
0

Please answer likewise for CCCCCCCC/C=C\CCCCCCCC(=O)OCC(O)CO (stereo not drawn)
0

Here is the next compound: `CCCCCCCCCCCCCC[P+](CCCC)(CCCC)CCCC`
1

Queued: `O=C1C=CC(=O)N1c1ccccc1`
0

Ok, now `CC(C)(C)c1cc(Cc2cc(C(C)(C)C)c(O)c(C(C)(C)C)c2)cc(C(C)(C)C)c1O`
0

More entries:
Recorded test outcome, item `CCN=c1cc2oc3cc(NCC)c(C)cc3c(-c3ccccc3C(=O)OCC)c-2cc1C`
0

How about this compound: `Cc1ccc([N+](=O)[O-])c(C)c1`
0

Now give it for `CCc1cc(Cc2cc(CC)c(N)c(CC)c2)cc(CC)c1N` too.
0

Next compound: CCC(Cc1c(I)cc(I)c(N)c1I)C(=O)O (stereo not drawn)
0

Okay, and `Cc1ccc(O)c(-n2nc3ccccc3n2)c1` ?
0

Another compound to check: OCC1CCCO1 (stereo not drawn)
0

// next record CCCCOC(=O)C(C)O (stereo not drawn)
0

// repeat for `CC(=O)CCC(C)C` and report
0

---

- Experiment Summary: TOX21_p53_BLA_p4_viability: Viability Assessment in the Tox21 HCT-116 p53 Agonism Beta-lactamase Assay, Phase 4 (AID 2283597);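 also: hits lower the luminescence signal meaning cytotoxicity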
- Text: TOX21_p53_BLA_p4 is a cell-based, single-readout assay that uses HCT116, a human intestinal cell line, […] in a 1536-well plate.TOX21_p53_BLA_p4_viability is an assay readout measuring cellular ATP content and detected with CellTiter-Glo Luciferase-coupled ATP quantitation.TOX21_p53_BLA_p4_viability used a type of viability reporter where loss-of-signal activity can be used to understand changes in the cell viability. […]
Inconclusive results are not listed. Active and inactive are the calls of the source. How the source made its calls: active means hit-call score of the fitted dose curve at least 0.9, where 1 is the maximum; inconclusive means response in the unintended direction; inactive means score below 0.9.
Just give me one of these, please: active, inactive

Field: example entries. Status: answers known.
Called result for `CCc1cc(Cc2cc(CC)c(N)c(CC)c2)cc(CC)c1N`
active

Proceed to `CSc1ccc(Cl)cc1`
inactive

Can you check `F[Si-2](F)(F)(F)(F)F` next?
inactive

Queued: `O=C(c1ccccc1)c1ccc(O)cc1O`
inactive

Now the same for `Brc1nc2ccccc2s1`
inactive

Next:
Which outcome was entered for the compound `CC(C)OC=O` in this test?
inactive

What do we get for `CCCCCCCCn1sc(Cl)c(Cl)c1=O` ?
active
